Reported binding signal values for the following binders.
- System tested: PU.1 (IVT) (UniProt P17947 1-270)
- Assay protocol: PBM; 20 mM HEPES pH 7.9, 100 mM NaCl, 1 mM DTT, 0.2 mg/mL BSA, 0.02% Triton X-100, 2% milk, 0.4 mg/mL salmon testes DNA, 1 h; temperature not stated
- Study conditions: protein: ivt; blunt
The reply should contain only the number, in z-score.

Below, 3 binders whose answers are already recorded.
Binder: PBM_PU1_IRF8_v2_22 (dsDNA) DNA 1: GCCTAGCACGAAAAGAGGAAGTGGAAACAGTGCTAGGTCTTGATTCGCTTGACGCTGCTG DNA 2: CAGCAGCGTCAAGCGAATCAAGACCTAGCACTGTTTCCACTTCCTCTTTTCGTGCTAGGC
binding signal / z-score: 8.54
//
Binder: PBM_PU1_IRF8_v2_1 (dsDNA) DNA 1: GCCTAGCACTAAAAGAGGAAGTGGCAGATGTGCTAGGTCTTGATTCGCTTGACGCTGCTG DNA 2: CAGCAGCGTCAAGCGAATCAAGACCTAGCACATCTGCCACTTCCTCTTTTAGTGCTAGGC
binding signal / z-score: 8.16
//
Binder: PBM_PU1_IRF8_v2_3 (dsDNA) DNA 1: GCCTAGCACATAAGGAGGAAGTGGCTGAAGTGCTAGGTCTTGATTCGCTTGACGCTGCTG DNA 2: CAGCAGCGTCAAGCGAATCAAGACCTAGCACTTCAGCCACTTCCTCCTTATGTGCTAGGC
binding signal / z-score: 5.13

Task: For the binder PBM_PU1_IRF8_v2_5 (dsDNA) DNA 1: GCCTAGCACAAATAGAGGAAGTCAGAGAGGTGCTAGGTCTTGATTCGCTTGACGCTGCTG DNA 2: CAGCAGCGTCAAGCGAATCAAGACCTAGCACCTCTCTGACTTCCTCTATTTGTGCTAGGC , give its reported binding signal.
Result: 6.21

Task: For the binder PBM_PU1_IRF8_v2_6 (dsDNA) DNA 1: GCCTAGCACGAAGAGAGGAAGTGAAATTAGTGCTAGGTCTTGATTCGCTTGACGCTGCTG DNA 2: CAGCAGCGTCAAGCGAATCAAGACCTAGCACTAATTTCACTTCCTCTCTTCGTGCTAGGC , give its reported binding signal.
Result: 5.03

All values here come from paper PMC6451091.
